assay.overview: Pharmacokinetics in rats
Assay type: in vivo, male Sprague–Dawley rats
study.conditions: male, Sprague-Dawley, rat, serum, iv, 5 mg/kg
measurement.label: half-life (h)

[[record]]
molecule = "Cl.[2H]C(N)(COc1ccccc1C(F)(F)F)c1ccccc1 (stereo not shown) [Compound 16]"
quantitative_readout = 4.3


---

Entries and their measured Vd follow.
assay.overview: Pharmacokinetics in rats
Type: in vivo, male Sprague–Dawley rats
study.conditions: male, Sprague-Dawley, rat, serum, iv, 5 mg/kg
measurement.label: Vd (L/kg)

[[record]]
compound = "Cl.[2H]C(N)(COc1ccccc1C(F)(F)F)c1ccccc1 (centres unmarked)"
quantitative_readout = 86.8

[[record]]
compound = "Cc1cccc(C)c1OCC(C)N (centres unmarked) [Mexiletine, reference compound]"
quantitative_readout = 197


# credit: paper PMC8322572
